B1: Hairpin Ribozyme (parent)
chain: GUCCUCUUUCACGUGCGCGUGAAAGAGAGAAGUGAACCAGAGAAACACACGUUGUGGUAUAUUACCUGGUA

variants of: B1; assay: self-cleavage, relative activity (ratio to wild type); higher = more cleavage; co-transcriptional
property: self-cleavage
Answers are plain numbers.

Sample records with self-cleavage:
sequence-input: GUCCUCUUUCGCGUGCGCGUGAAAGAGAGAAGUGAACCAGAGCAACACACGUUGUGGUAUAUUACCUGGUA
recorded-value: 0.0944
//
sequence-input: GUCCUCUUUCACGUGCGCGUGAAAGAGAGUAGUGAACCAGAGAAACACACGUUGUGGUAUAUUACCAGGUA
recorded-value: 0.0771
//
sequence-input: GUCCUCUUUAACGUGCGCGUGAAAGAGAGAAGUGAACCAGAGAGACACACGUUGUGGUAUAUUACCUGGUA
recorded-value: 0.178
//
sequence-input: GUCCUCUUUCACGUGAGCGUGAAAGAGAGAAGGGAACCAGAGAAACACACGUUGUGGUAUAUUACCUGGUA
recorded-value: 0.317
//
sequence-input: GUCCUCUUUCACGUGCGCGUGAAAGAGAGAAGUGAACCACAGAAACACACGUUGUGGUAGAUUACCUGGUA
recorded-value: 0.102
//
sequence-input: GUCCUCUUUCACGUGCGCGUGAAAGAGAGAAGUGAACCGGAGAAACACACCUUGUGGUAUAUUACCUGGUA
recorded-value: 0.232
//
sequence-input: GUCCUCUUUCACGUGCGAGUGAAAGAGAGAAGUGAACCAGAGAAACACACGAUGUGGUAUAUUACCUGGUA
recorded-value: 1.07
//
sequence-input: GUCCUCAUUCACGUGCGCGUGAAAGAGAGAAGUGAACCAGAGAAACACACGUUGUGGUAAAUUACCUGGUA
recorded-value: 0.893
//
sequence-input: GUCCUCUUUCAGGUGCGCGUGAAAGAGAGAAGUGAACCAGAGAAACACACGUUGUGGUAUAUUAUCUGGUA
recorded-value: 0.28
//
sequence-input: GUCCUCUUUCACGUGCGCGUGAAAGAGAGAAGUGGACCAGAGAAACACACGUUGUGGUAUAUUACCUGGUC
recorded-value: 1.16

Would you mind listing self-cleavage for each of the following variants?
1. GUCCUCUUUCACGUGCGCGUGAAAUAGAGAAGUGAGCCAGAGAAACACACGUUGUGGUAUAUUACCUGGUA
2. GUCCUCUUUCACGUUCGCGUGAAAAAGAGAAGUGAACCAGAGAAACACACGUUGUGGUAUAUUACCUGGUA
3. GUCCACUUUCACGUGCGCGUGAAAGAGAGAAGUGAACCAGAGAAACACACGUUGUGGUAUAUUACUUGGUA
4. GUCCUCUUUCACGUACGCGUGAAAGAGAGAAGUGAACCAGAGACACACACGUUGUGGUAUAUUACCUGGUA
5. GUCCUCUUACACGUGCGCGUGAAAGAGAGAAGUGAACCAGAGUAACACACGUUGUGGUAUAUUACCUGGUA
6. GUCCUCUUUCACGUGCGCGUGAAAGAGAGAAGUAAACCAGAGAAACACAUGUUGUGGUAUAUUACCUGGUA
7. GUCCUCUUUCACGUGCGCGUGAAAGAGACAAGUGAACCAGAGAAACACACGUUGUGGUAUUUUACCUGGUA

1. 0.639
2. 0.703
3. 0.153
4. 0.143
5. 0.105
6. 0.653
7. 0.0566

Would you mind listing self-cleavage for each of the following variants?
1. GCCCUCUUUCACGUGCGCGUGAAAGAGAGAAGUGAACCAGAGAAACACACGUUGUGGUAUAUUACCCGGUA
2. GUCCUCUUUCACGUGCGCGUGAAAGAGAGCAGUGAACCAGAGAAAGACACGUUGUGGUAUAUUACCUGGUA
3. GUCCUCUUUCACGUGUCCGUGAAAGAGAGAAGUGAACCAGAGAAACACACGUUGUGGUAUAUUACCUGGUA
4. GUCCUCUAUCACGUGCGCGUGAAAGAGAGGAGUGAACCAGAGAAACACACGUUGUGGUAUAUUACCUGGUA

0.0838
0.0771
0.985
0.13

What value of self-cleavage has been recorded for this entry: "GUCCUCUUUCACGUGCGCGUGAAAGAGAGAAGUGAUACAGAGAAACACACGUUGUGGUAUAUUACCUGGUA"
0.184

Ref: the RNAGym collection of RNA variant scans (doi:10.7554/elife.80360)
